# Test system: rat liver mitochondria (RLM)
# protocol details: Mitochondrial respiration of isolated RLM (Clark-type oxygen electrode)
# Format: biochemical
# protocol conditions: glutamate/malate; 2.5 μM
parameter measured: ADP/O
Output: the number by itself.

Example entries begin here.
compound: CS(=O)(=O)[O-].O=C(/C=C/c1cc(O)c(O)c(O)c1)NCCCCCCCC[P+](c1ccccc1)(c1ccccc1)c1ccccc1 [AntiOxCIN5]
parameter measured: ADP/O
result number: 2.4
--
compound: CS(=O)(=O)[O-].O=C(/C=C/c1cc(O)c(O)c(O)c1)NCCCCCC[P+](c1ccccc1)(c1ccccc1)c1ccccc1 [AntiOxCIN4]
parameter measured: ADP/O
result number: 2.4
--
compound: COC1=C(OC)C(=O)C(CCCCCCCCCC[P+](c2ccccc2)(c2ccccc2)c2ccccc2)=C(C)C1=O.CS(=O)(=O)[O-] [MitoQ, reference compound]
parameter measured: ADP/O
result number: 2.2

Shift focus to the following entry.
Asked: # get_value(readout='ADP/O', item= CS(=O)(=O)[O-].O=C(/C=C/c1ccc(O)c(O)c1)NCCCCCCCCCC[P+](c1ccccc1)(c1ccccc1)c1ccccc1 [AntiOxCIN6] )
Given back: 2.5

* * *

# Test system: rat liver mitochondria (RLM)
# protocol details: Mitochondrial transmembrane electric potential (ΔΨ) of RLM, safranine fluorescence
# Format: biochemical
# protocol conditions: succinate; 5 μM
# Method: In an embodiment, and as an example, AntiOxCINs and MitoQ toxicity effects on the mitochondrial bioenergetics, namely on RLM ΔΨ and mitochondrial respiration parameters, were measured. […] In addition, the mitochondrial oxidative phosphorylation coupling index, known as respiratory control ratio (RCR, state 3/state 4 respiration) and ADP/O index (the coupling between ATP synthesis and oxygen consumption) were also calculated. […]
Repolarization Potential (ΔΨ in - mV) reference
Write down the numeric answer in mV and omit the unit.

Take a look at these entries with their results.
molecule: CS(=O)(=O)[O-].O=C(/C=C/c1ccc(O)c(O)c1)NCCCCCC[P+](c1ccccc1)(c1ccccc1)c1ccccc1 [AntiOxCIN2]
parameter measured: Repolarization Potential (ΔΨ in - mV)
output unit: mV
result number: 189.5
//
molecule: COC1=C(OC)C(=O)C(CCCCCCCCCC[P+](c2ccccc2)(c2ccccc2)c2ccccc2)=C(C)C1=O.CS(=O)(=O)[O-] [MitoQ, reference compound]
parameter measured: Repolarization Potential (ΔΨ in - mV)
output unit: mV
result number: 170.8
//
molecule: CS(=O)(=O)[O-].O=C(/C=C/c1cc(O)c(O)c(O)c1)NCCCCCCCC[P+](c1ccccc1)(c1ccccc1)c1ccccc1 [AntiOxCIN5]
parameter measured: Repolarization Potential (ΔΨ in - mV)
output unit: mV
result number: 184.0
//
molecule: CS(=O)(=O)[O-].O=C(/C=C/c1cc(O)c(O)c(O)c1)NCCCCCC[P+](c1ccccc1)(c1ccccc1)c1ccccc1 [AntiOxCIN4]
parameter measured: Repolarization Potential (ΔΨ in - mV)
output unit: mV
result number: 195.4
//
molecule: CS(=O)(=O)[O-].O=C(/C=C/c1cc(O)c(O)c(O)c1)NCCCCCCCCCC[P+](c1ccccc1)(c1ccccc1)c1ccccc1 [AntiOxCIN7]
parameter measured: Repolarization Potential (ΔΨ in - mV)
output unit: mV
result number: 186.8
//
molecule: CS(=O)(=O)[O-].O=C(/C=C/c1ccc(O)c(O)c1)NCCCCCCCC[P+](c1ccccc1)(c1ccccc1)c1ccccc1 [AntiOxCIN3]
parameter measured: Repolarization Potential (ΔΨ in - mV)
output unit: mV
result number: 190.4

Asked: Which Repolarization Potential (ΔΨ in - mV) value belongs to CS(=O)(=O)[O-].O=C(/C=C/c1ccc(O)c(O)c1)NCCCCCCCCCC[P+](c1ccccc1)(c1ccccc1)c1ccccc1 [AntiOxCIN6] ?
Given back: 178.1
